Target: oestrone sulphatase (E1-STS) (Homo sapiens, UniProt P08842)
Sequence (P08842 22-583): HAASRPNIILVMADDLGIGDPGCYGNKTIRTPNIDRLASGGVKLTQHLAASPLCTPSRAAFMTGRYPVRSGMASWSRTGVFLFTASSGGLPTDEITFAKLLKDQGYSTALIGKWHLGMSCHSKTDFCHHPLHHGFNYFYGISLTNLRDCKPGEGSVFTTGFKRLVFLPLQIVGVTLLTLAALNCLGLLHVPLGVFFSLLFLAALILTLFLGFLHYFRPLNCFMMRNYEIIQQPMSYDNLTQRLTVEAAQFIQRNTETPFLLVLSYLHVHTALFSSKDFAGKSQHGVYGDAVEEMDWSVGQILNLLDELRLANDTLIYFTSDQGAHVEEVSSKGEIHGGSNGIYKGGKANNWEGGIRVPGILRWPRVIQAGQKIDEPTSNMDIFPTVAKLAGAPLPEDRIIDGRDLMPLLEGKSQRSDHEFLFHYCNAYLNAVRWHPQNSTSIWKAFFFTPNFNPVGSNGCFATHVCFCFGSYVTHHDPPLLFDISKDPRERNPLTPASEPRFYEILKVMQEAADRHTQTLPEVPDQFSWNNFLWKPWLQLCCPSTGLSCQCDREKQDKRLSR
Test: Inhibition of steroid sulphatase activity in placental microsomes
Type: biochemical
Set-up: from tissue; host or cells: human term placenta (microsomal preparation)
Conditions: 50 µM
measurement_name: % Inhibition of E1-STS activity in placental microsomes (%)

{"columns": ["molecule", "numeric_readout"],
 "data": [
  ["NS(=O)(=O)Oc1ccc2c(c1)C(=O)c1ccc(O)cc1C2=O [Compound 11, 2-hydroxyanthraquinone-6-O-sulphamate]", 94.4],
  ["NS(=O)(=O)Oc1ccc(Cc2ccc(OS(N)(=O)=O)cc2)cc1 [Compound 18, 4,4′-Bis-sulphamoyloxydiphenylmethane]", 38.7],
  ["NS(=O)(=O)Oc1ccc(Sc2ccc(OS(N)(=O)=O)cc2)cc1 [Compound 15, Thiodiphenyl-4,4′O,O-bis-sulphamate]", 87.4]
]}

====

Target: oestrone sulphatase (E1-STS) (Homo sapiens, UniProt P08842)
Sequence (P08842 22-583): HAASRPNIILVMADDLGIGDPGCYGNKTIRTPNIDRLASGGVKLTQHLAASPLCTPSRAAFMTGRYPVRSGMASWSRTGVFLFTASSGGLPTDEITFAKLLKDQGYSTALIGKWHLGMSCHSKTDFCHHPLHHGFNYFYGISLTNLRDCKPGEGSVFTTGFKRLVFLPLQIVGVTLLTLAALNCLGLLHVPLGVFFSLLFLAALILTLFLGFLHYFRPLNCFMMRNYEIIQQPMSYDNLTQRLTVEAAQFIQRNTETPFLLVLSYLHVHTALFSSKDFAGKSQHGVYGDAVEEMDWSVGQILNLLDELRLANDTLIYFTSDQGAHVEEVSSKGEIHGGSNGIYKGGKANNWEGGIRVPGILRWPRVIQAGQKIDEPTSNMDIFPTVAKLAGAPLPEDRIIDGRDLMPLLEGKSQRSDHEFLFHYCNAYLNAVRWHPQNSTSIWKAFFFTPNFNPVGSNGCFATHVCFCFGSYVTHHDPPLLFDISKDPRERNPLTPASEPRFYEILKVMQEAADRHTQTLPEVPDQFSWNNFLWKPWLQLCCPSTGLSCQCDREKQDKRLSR
Assay: Inhibition of steroid sulphatase activity in placental microsomes
Format: biochemical
Parameters: from tissue; host or cells: human term placenta (microsomal preparation)
Conditions: 25 µM
% Inhibition of E1-STS activity in placental microsomes reference
measurement_name: % Inhibition of E1-STS activity in placental microsomes (%)

{"columns": ["compound", "unit_abbreviation", "numeric_readout"],
 "data": [
  ["NS(=O)(=O)Oc1ccc(Sc2ccc(OS(N)(=O)=O)cc2)cc1 [Compound 15, Thiodiphenyl-4,4′O,O-bis-sulphamate]", "%", 79.4],
  ["NS(=O)(=O)Oc1cccc(C(=O)c2cccc(O)c2)c1 [Compound 29, 3′-hydroxybenzophenone-3-O-sulphamate]", "%", 30.7],
  ["NS(=O)(=O)Oc1ccc(C(=O)c2ccc(O)cc2)cc1 [Compound 5, 4′-Hydroxybenzophenone-4-O-sulphamate]", "%", 82.0],
  ["NS(=O)(=O)Oc1ccc(Cc2ccc(OS(N)(=O)=O)cc2)cc1 [Compound 18, 4,4′-Bis-sulphamoyloxydiphenylmethane]", "%", 29.4]
]}
